Origin of the recorded values: ChEMBL document CHEMBL2401649

- measurement target: Delta-type opioid receptor (Rattus norvegicus)
- protocol summary: Displacement of [3H]-DIDI from delta opioid receptor in Wistar rat brain membranes after 45 mins by liquid scintillation counting analysis
Give Ki for every item shown.
Number plus unit, in that order.

Example entries begin here.
compound	Ki
CS/C1=N/CCC[C@@H](C(N)=O)NC(=O)[C@H](CC(C)C)NC(=O)[C@H](Cc2ccccc2)NC(=O)CNC(=O)[C@H](NC(=O)[C@@H](N)Cc2ccc(O)cc2)CCCN1	191 nM
CC(C)C[C@@H]1NC(=O)[C@H](Cc2ccccc2)NC(=O)CNC(=O)[C@H](NC(=O)[C@@H](N)Cc2ccc(O)cc2)CCCN/C(N2CCCC2)=N\CCC[C@@H](C(N)=O)NC1=O	628 nM
NC(=O)[C@@H]1C/N=C(/N2CCCCC2)NC[C@@H](NC(=O)[C@@H](N)Cc2ccc(O)cc2)C(=O)NCC(=O)N[C@@H](Cc2ccccc2)C(=O)N1 (stereo in doubt; 14c)	3500 nM
CC(C)C[C@@H]1NC(=O)[C@H](Cc2ccccc2)NC(=O)CNC(=O)[C@H](NC(=O)[C@@H](N)Cc2ccc(O)cc2)CCCN/C(N(C)C)=N\CCC[C@@H](C(N)=O)NC1=O	146 nM
CC(C)C[C@@H]1NC(=O)[C@H](Cc2ccccc2)NC(=O)CNC(=O)[C@H](NC(=O)[C@@H](N)Cc2ccc(O)cc2)CCCN/C(N)=N\CCC[C@@H](C(N)=O)NC1=O	108 nM

Report Ki for each item below.
1. CC(C)C[C@@H]1NC(=O)[C@H](Cc2ccccc2)NC(=O)CNC(=O)[C@H](NC(=O)[C@@H](N)Cc2ccc(O)cc2)CCCNC(=S)NCCC[C@@H](C(N)=O)NC1=O
2. C/N=C1/NCCC[C@@H](C(N)=O)NC(=O)[C@H](CC(C)C)NC(=O)[C@H](Cc2ccccc2)NC(=O)CNC(=O)[C@H](NC(=O)[C@@H](N)Cc2ccc(O)cc2)CCCN1

["75.7 nM", "185 nM"]

====

- measurement target: Delta-type opioid receptor (Rattus norvegicus, UniProt P33533)
- Sequence (P33533 whole entry): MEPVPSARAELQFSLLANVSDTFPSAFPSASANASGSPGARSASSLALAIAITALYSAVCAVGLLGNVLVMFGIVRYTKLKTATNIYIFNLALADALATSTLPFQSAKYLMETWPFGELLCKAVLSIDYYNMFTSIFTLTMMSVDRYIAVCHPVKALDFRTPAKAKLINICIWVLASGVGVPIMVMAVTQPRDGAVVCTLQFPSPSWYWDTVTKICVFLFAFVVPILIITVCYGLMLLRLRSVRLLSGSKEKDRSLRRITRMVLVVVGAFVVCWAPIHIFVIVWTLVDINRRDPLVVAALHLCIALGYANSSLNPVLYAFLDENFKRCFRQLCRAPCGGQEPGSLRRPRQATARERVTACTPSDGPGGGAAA
- protocol summary: Displacement of [3H]-DIDI from delta opioid receptor in Wistar rat brain membranes after 45 mins by liquid scintillation counting analysis
endpoint name: log10(IC50) (log10 of the value in nM)
Hello, just confirming the data are log10 of IC50 with units of nM.

Example entries begin here.
molecule	measurement target	log10(IC50)
CC(C)C[C@@H]1NC(=O)[C@H](Cc2ccccc2)NC(=O)CNC(=O)[C@H](NC(=O)[C@@H](N)Cc2ccc(O)cc2)CCCNC(=S)NCCC[C@@H](C(N)=O)NC1=O	Delta-type opioid receptor (Rattus norvegicus, UniProt P33533)	1.99
C/N=C1/NCCC[C@@H](C(N)=O)NC(=O)[C@H](CC(C)C)NC(=O)[C@H](Cc2ccccc2)NC(=O)CNC(=O)[C@H](NC(=O)[C@@H](N)Cc2ccc(O)cc2)CCCN1	Delta-type opioid receptor (Rattus norvegicus, UniProt P33533)	2.39
CS/C1=N/CCC[C@@H](C(N)=O)NC(=O)[C@H](CC(C)C)NC(=O)[C@H](Cc2ccccc2)NC(=O)CNC(=O)[C@H](NC(=O)[C@@H](N)Cc2ccc(O)cc2)CCCN1	Delta-type opioid receptor (Rattus norvegicus, UniProt P33533)	2.40

Report log10(IC50) for each item below.
1. CC(C)C[C@@H]1NC(=O)[C@H](Cc2ccccc2)NC(=O)CNC(=O)[C@H](NC(=O)[C@@H](N)Cc2ccc(O)cc2)CCCN/C(N)=N\CCC[C@@H](C(N)=O)NC1=O
2. CC(C)C[C@@H]1NC(=O)[C@H](Cc2ccccc2)NC(=O)CNC(=O)[C@H](NC(=O)[C@@H](N)Cc2ccc(O)cc2)CCCN/C(N2CCCC2)=N\CCC[C@@H](C(N)=O)NC1=O
3. NC(=O)[C@@H]1C/N=C(/N2CCCCC2)NC[C@@H](NC(=O)[C@@H](N)Cc2ccc(O)cc2)C(=O)NCC(=O)N[C@@H](Cc2ccccc2)C(=O)N1 (stereo in doubt; 14b)
4. CC(C)C[C@@H]1NC(=O)[C@H](Cc2ccccc2)NC(=O)CNC(=O)[C@H](NC(=O)[C@@H](N)Cc2ccc(O)cc2)CCCN/C(N(C)C)=N\CCC[C@@H](C(N)=O)NC1=O

[2.16, 2.92, 3.69, 2.29]

====

- measurement target: Kappa-type opioid receptor (Cavia porcellus)
- Sequence (P41144 whole entry): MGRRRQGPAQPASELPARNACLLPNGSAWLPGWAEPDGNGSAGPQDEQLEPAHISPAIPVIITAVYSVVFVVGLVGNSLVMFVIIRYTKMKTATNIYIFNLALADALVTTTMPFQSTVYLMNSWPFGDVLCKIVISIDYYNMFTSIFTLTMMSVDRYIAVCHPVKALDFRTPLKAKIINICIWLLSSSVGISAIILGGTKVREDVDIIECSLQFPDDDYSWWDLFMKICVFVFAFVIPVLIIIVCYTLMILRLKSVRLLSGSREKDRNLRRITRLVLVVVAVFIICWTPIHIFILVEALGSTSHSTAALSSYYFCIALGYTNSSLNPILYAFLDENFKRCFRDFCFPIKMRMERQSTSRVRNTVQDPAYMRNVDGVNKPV
- protocol summary: Displacement of [3H]-U69,593 from kappa opioid receptor in guinea pig brain membranes after 2 hrs by liquid scintillation counting analysis
- Assay type: cell membranes, Membrane
endpoint name: Ki

Example entries begin here.
molecule	endpoint name	value observed
NC(=O)[C@@H]1C/N=C(/N2CCCC2)NC[C@@H](NC(=O)[C@@H](N)Cc2ccc(O)cc2)C(=O)NCC(=O)N[C@@H](Cc2ccccc2)C(=O)N1 (stereo in doubt; 13b)	Ki	> 500 nM
CC(C)C[C@@H]1NC(=O)[C@H](Cc2ccccc2)NC(=O)CNC(=O)[C@H](NC(=O)[C@@H](N)Cc2ccc(O)cc2)CCCN/C(N)=N\CCC[C@@H](C(N)=O)NC1=O	Ki	> 500 nM
NC(=O)[C@@H]1C/N=C(/N2CCCC2)NC[C@@H](NC(=O)[C@@H](N)Cc2ccc(O)cc2)C(=O)NCC(=O)N[C@@H](Cc2ccccc2)C(=O)N1 (stereo in doubt; 13a)	Ki	> 500 nM
C/N=C1/NCCC[C@@H](C(N)=O)NC(=O)[C@H](CC(C)C)NC(=O)[C@H](Cc2ccccc2)NC(=O)CNC(=O)[C@H](NC(=O)[C@@H](N)Cc2ccc(O)cc2)CCCN1	Ki	> 300 nM
CC(C)C[C@@H]1NC(=O)[C@H](Cc2ccccc2)NC(=O)CNC(=O)[C@H](NC(=O)[C@@H](N)Cc2ccc(O)cc2)CCCN/C(N(C)C)=N\CCC[C@@H](C(N)=O)NC1=O	Ki	> 500 nM

For NC(=O)[C@@H]1C/N=C(/N2CCCC2)NC[C@@H](NC(=O)[C@@H](N)Cc2ccc(O)cc2)C(=O)NCC(=O)N[C@@H](Cc2ccccc2)C(=O)N1 (stereo in doubt; 13c) , what is its reported Ki?
> 500 nM

====

- measurement target: Mu-type opioid receptor (Rattus norvegicus)
- Sequence (P33535 whole entry): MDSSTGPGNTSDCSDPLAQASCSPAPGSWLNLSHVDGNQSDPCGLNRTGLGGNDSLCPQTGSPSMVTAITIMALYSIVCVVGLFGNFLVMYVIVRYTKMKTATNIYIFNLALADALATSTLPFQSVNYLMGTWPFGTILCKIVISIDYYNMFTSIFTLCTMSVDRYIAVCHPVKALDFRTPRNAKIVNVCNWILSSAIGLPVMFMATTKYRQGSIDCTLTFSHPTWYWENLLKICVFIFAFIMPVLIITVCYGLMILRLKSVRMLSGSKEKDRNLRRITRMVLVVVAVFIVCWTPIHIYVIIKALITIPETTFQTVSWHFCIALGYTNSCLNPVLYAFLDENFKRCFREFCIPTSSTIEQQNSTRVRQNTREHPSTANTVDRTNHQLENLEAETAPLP
- protocol summary: Displacement of [3H]-DAMGO from mu opioid receptor in Wistar rat brain membranes after 45 mins by liquid scintillation counting analysis
Give pIC50 for every item shown.
One number for each entry, as −log10 of the molar value.

Example entries begin here.
structure notation	pIC50
CC(C)C[C@@H]1NC(=O)[C@H](Cc2ccccc2)NC(=O)CNC(=O)[C@H](NC(=O)[C@@H](N)Cc2ccc(O)cc2)CCCN/C(N)=N\CCC[C@@H](C(N)=O)NC1=O	7.60
CC(C)C[C@@H]1NC(=O)[C@H](Cc2ccccc2)NC(=O)CNC(=O)[C@H](NC(=O)[C@@H](N)Cc2ccc(O)cc2)CCCN/C(N2CCCC2)=N\CCC[C@@H](C(N)=O)NC1=O	6.63

API: the following record is the query input.
For `C/N=C1/NCCC[C@@H](C(N)=O)NC(=O)[C@H](CC(C)C)NC(=O)[C@H](Cc2ccccc2)NC(=O)CNC(=O)[C@H](NC(=O)[C@@H](N)Cc2ccc(O)cc2)CCCN1` , what is its reported pIC50?
7.62

====

// Mu-type opioid receptor (Cavia porcellus, UniProt P97266) IC50 records
Numbers only, in nM.

molecule	IC50 / nM
NC(=O)[C@@H]1CNC(=S)NC[C@@H](NC(=O)[C@@H](N)Cc2ccc(O)cc2)C(=O)NCC(=O)N[C@@H](Cc2ccccc2)C(=O)N1 (stereo in doubt; 7a)	1.76

API: the following record is the query input.
For NC(=O)[C@@H]1C/N=C(/N2CCCCC2)NC[C@@H](NC(=O)[C@@H](N)Cc2ccc(O)cc2)C(=O)NCC(=O)N[C@@H](Cc2ccccc2)C(=O)N1 (stereo in doubt; 14a) , what is its reported IC50?
398
